target: UniProt:O43293
Sequence (O43293 whole entry, looked up): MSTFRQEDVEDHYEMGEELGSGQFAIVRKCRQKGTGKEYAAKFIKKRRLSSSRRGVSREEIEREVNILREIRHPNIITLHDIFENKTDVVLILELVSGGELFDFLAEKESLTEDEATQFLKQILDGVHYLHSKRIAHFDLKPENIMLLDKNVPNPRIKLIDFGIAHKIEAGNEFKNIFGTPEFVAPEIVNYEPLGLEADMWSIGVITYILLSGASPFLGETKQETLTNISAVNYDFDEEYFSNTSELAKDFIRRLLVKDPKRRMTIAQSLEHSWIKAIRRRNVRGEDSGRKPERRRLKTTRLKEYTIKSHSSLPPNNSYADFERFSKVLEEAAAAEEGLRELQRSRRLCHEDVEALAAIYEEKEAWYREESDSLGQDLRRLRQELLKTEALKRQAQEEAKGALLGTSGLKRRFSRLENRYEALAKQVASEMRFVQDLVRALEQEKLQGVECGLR
# Lookup of reported ΔTm keyed by entry
Express the result in °C but write the number alone.

>>> val("O=C1Nc2ccc(S(=O)(=O)O)cc2/C1=C1/Nc2ccccc2/C1=N\\O")
6.4

Query: Tell me reported ΔTm for `Cc1cc(C=C2C(=O)C=CC2=O)cc(C)c1O` , tested with UniProt:O43293.
Response: 0.6

Query: Tell me reported ΔTm for `O=c1c2ccccc2[nH]c(=S)n1CCN1CCC(=C(c2ccc(F)cc2)c2ccc(F)cc2)CC1` , tested with UniProt:O43293.
Response: 1.6

Query: Tell me reported ΔTm for `CC(C)N(CCO)c1nc(Nc2cccc(Cl)c2)c2ncn(C(C)C)c2n1` , tested with UniProt:O43293.
Response: 0.4

Query: Tell me reported ΔTm for `Cc1ccc(NC2=CC(=O)c3sc(C)nc3C2=O)cc1` , tested with UniProt:O43293.
Response: -0.2

Query: Tell me reported ΔTm for `COc1cc2ncnc(Nc3cccc(O)c3)c2cc1OC` , tested with UniProt:O43293.
Response: 1.7

Query: Tell me reported ΔTm for COc1ccc2c(c[n+](C)c3c4cc5c(cc4ccc23)OCO5)c1OC [CHELERYTHRINE CHLORIDE] , tested with UniProt:O43293.
Response: 0.1

Query: Tell me reported ΔTm for `O=C1C=C2C(=Nc3c2c2c(c4c3=NC3=C4CCC=C3)C=NC=2)CC1` , tested with UniProt:O43293.
Response: 3.8

Query: Tell me reported ΔTm for `COc1cc2ncnc(Nc3ccc(F)c(Cl)c3)c2cc1OCCCN1CCOCC1` , tested with UniProt:O43293.
Response: 3.2

Query: Tell me reported ΔTm for `Oc1cc(O)cc(/C=C/c2ccc(O)c(O)c2)c1` , tested with UniProt:O43293.
Response: 4.6

Query: Tell me reported ΔTm for `COc1cc(OC)c(/C=C2\C(=O)Nc3ccccc32)c(OC)c1` , tested with UniProt:O43293.
Response: -0.3

Query: Tell me reported ΔTm for `O=c1ccc2ccc(O)c(O)c2o1` , tested with UniProt:O43293.
Response: -0.6

Query: Tell me reported ΔTm for `N#CCCc1ccc2c(c1)-c1[nH]c3ccc([N+](=O)[O-])cc3c1CC(=O)N2` , tested with UniProt:O43293.
Response: 1.7
